Origin of the recorded values: patent US20230278983A1

- SYSTEM TESTED: CK2 (Homo sapiens (Human), UniProt P68400)
- Sequence (P68400 whole entry): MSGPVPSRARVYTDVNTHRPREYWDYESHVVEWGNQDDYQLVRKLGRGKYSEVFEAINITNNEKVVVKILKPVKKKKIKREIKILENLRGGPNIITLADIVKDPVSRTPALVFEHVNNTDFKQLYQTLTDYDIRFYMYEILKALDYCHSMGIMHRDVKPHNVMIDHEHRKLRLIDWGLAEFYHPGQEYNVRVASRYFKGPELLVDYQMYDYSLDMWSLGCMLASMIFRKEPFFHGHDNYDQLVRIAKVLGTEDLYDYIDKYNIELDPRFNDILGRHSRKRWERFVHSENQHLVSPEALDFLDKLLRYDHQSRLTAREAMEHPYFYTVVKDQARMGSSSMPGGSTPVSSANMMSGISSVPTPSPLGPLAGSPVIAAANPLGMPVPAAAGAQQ
- PROTOCOL NOTES: Radiometric CK2 kinase assay
- Assay type: biochemical
- MEASUREMENT CONDITIONS: inhibition of CK2 activity; ATP 10 μM
pIC50: −log10 of the molar value.
Categories are defined by ranges of pIC50, namely c1 = under 6, c2 = from 6 up to 7, c3 = 7 and over

> print(dat)
                              line.notation  answer.label
1  CC(=O)c1[nH]c2ccc(F)cc2c1-c1cn(CC2CCN(CCNS(=O)(=O)N3CCC(c4c(F)cccc4F)CC3)CC2)nn1            c2
2  CC(=O)c1[nH]c2ccc(F)cc2c1-c1cn(CC2CCN(CCNS(=O)(=O)c3ccc(-c4cccnc4F)cc3)CC2)nn1            c2
3  O=C(O)c1[nH]c2cc(Cl)ccc2c1-c1cn(CC2CCN(CCNS(=O)(=O)c3ccc(Cl)cc3)CC2)nn1            c1
4  CC(C)COC(=O)c1[nH]c2ccc(F)cc2c1-c1cn(CC2CCN(CCNS(=O)(=O)Cc3ccc(Br)cc3)CC2)nn1            c3
5  CC(C)COC(=O)c1[nH]c2ccc(F)cc2c1-c1cn(CC2CCN(CCNS(=O)(=O)Cc3ccc(C(F)(F)F)cc3)CC2)nn1            c3
6  O=C(O)c1[nH]c2ccc(Cl)cc2c1-c1cn(CC2CCN(CCNS(=O)(=O)c3ccc(Cl)cc3)CC2)nn1            c1
7  CCc1ccc(S(=O)(=O)NCCN2CCC(Cn3cc(-c4c(C(=O)OCCN)[nH]c5ccc(F)cc45)nn3)CC2)cc1            c1
8  CC(C)CC(=O)c1[nH]c2ccc(F)cc2c1-c1cn(CC2CCN(CCNS(=O)(=O)Cc3ccc(C(F)(F)F)cc3)CC2)nn1            c2
9  CC(C)COC(=O)c1[nH]c2ccc(F)cc2c1-c1cn(CC2CCN(CCNS(=O)(=O)Cc3ccc(Cl)cc3)CC2)nn1            c2

====

- SYSTEM TESTED: CK2 (Homo sapiens (Human))
- PROTOCOL NOTES: Radiometric CK2 kinase assay
- Assay type: biochemical
- MEASUREMENT CONDITIONS: compound at 1 μM; ATP 10 μM
READOUT: inhibition at 1 µM (%)

> print(dat)
                              line.notation               system.tested             readout  recorded.measurement
1  CC(C)COC(=O)c1[nH]c2ccc(F)cc2c1-c1cn(CC2CCN(S(=O)(=O)c3ccc(C(C)(C)C)cc3)CC2)nn1  CK2 (Homo sapiens (Human))  inhibition at 1 µM                     5
2  CCc1ccc(S(=O)(=O)NCCN2CCC(Cn3cc(-c4c(C(=O)OCCC(C)C)[nH]c5ccc(F)cc45)nn3)CC2)cc1  CK2 (Homo sapiens (Human))  inhibition at 1 µM                    11
3  CC(C)COC(=O)c1[nH]c2ccc(F)cc2c1-c1cn(CC2CCN(Cc3ccc(Oc4ccccc4)c(C(C)C)c3)CC2)nn1  CK2 (Homo sapiens (Human))  inhibition at 1 µM                    16
4  CC(C)COC(=O)c1[nH]c2ccc(F)cc2c1-c1cn(CC2CCN(C(=O)c3ccc(-c4cccc5[nH]ccc45)c(C(F)(F)F)c3)CC2)nn1  CK2 (Homo sapiens (Human))  inhibition at 1 µM                    19
5  CC(=O)c1cccc(Oc2ccc(CN3CCC(Cn4cc(-c5c(C(=O)OCC(C)C)[nH]c6ccc(F)cc56)nn4)CC3)cc2C(C)C)c1  CK2 (Homo sapiens (Human))  inhibition at 1 µM                     5
6  CC(C)CNC(=O)c1[nH]c2ccc(F)cc2c1-c1cn(CC2CCN(CCNS(=O)(=O)c3ccc(C(C)C)cc3)CC2)nn1  CK2 (Homo sapiens (Human))  inhibition at 1 µM                     4

====

In this section we review reported inhibition at 1 µM values for a set of compounds.
- SYSTEM TESTED: CK2 (Homo sapiens (Human))
- PROTOCOL NOTES: Radiometric CK2 kinase assay
- Type: biochemical
- MEASUREMENT CONDITIONS: compound at 1 μM; ATP 10 μM
READOUT: inhibition at 1 µM (%)

> print(dat)
                              line.notation               system.tested             readout  recorded.measurement
1  CC(C)COC(=O)c1[nH]c2ccc(F)cc2c1-c1cn(CC2CCN(Cc3ccc(-c4ccc5[nH]ccc5c4)c(Cl)c3)CC2)nn1  CK2 (Homo sapiens (Human))  inhibition at 1 µM                    18
2  COCc1ccccc1-c1ccc(CN2CCC(Cn3cc(-c4c(C(=O)OCC(C)C)[nH]c5ccc(F)cc45)nn3)CC2)cc1C(C)C  CK2 (Homo sapiens (Human))  inhibition at 1 µM                    21
3  CC(C)COC(=O)c1[nH]c2ccc(F)cc2c1-c1cn(CC2CCN(S(=O)(=O)N3CCN(Cc4ccccc4)CC3)CC2)nn1  CK2 (Homo sapiens (Human))  inhibition at 1 µM                    56
4  CC(=O)c1cccc(-c2ccc(CN3CCC(Cn4cc(-c5c(C(=O)OCC(C)C)[nH]c6ccc(F)cc56)nn4)CC3)cc2Cl)c1  CK2 (Homo sapiens (Human))  inhibition at 1 µM                     7

====

- SYSTEM TESTED: UniProtKB P68400
- PROTOCOL NOTES: Radiometric CK2 kinase assay
- Assay type: biochemical
READOUT: IC50 (nM)

> print(dat)
                                    molecule     system.tested  readout  unit.name  recorded.measurement
 1  CC(C)COC(=O)c1[nH]c2ccc(F)cc2c1-c1cn(CC2CCN(CCNS(=O)(=O)c3ccc(-c4cccnc4Cl)cc3)CC2)nn1 [AB1133]  UniProtKB P68400     IC50         nM                    26
 2  CCC(=O)c1[nH]c2ccc(F)cc2c1-c1cn(CC2CCN(CCNS(=O)(=O)c3ccc(-c4c(OC)cccc4OC)cc3)CC2)nn1 [AB1416]  UniProtKB P68400     IC50         nM                   100
 3  CC(=O)c1[nH]c2ccc(F)cc2c1-c1cn(CC2CCN(CCNS(=O)(=O)c3ccc(-c4c(F)cccc4F)cc3)CC2)nn1 [AB1288]  UniProtKB P68400     IC50         nM                    78
 4  CCC(=O)c1[nH]c2ccc(F)cc2c1-c1cn(CC2CCN(CCNS(=O)(=O)c3ccc(-c4c(O)cccc4F)cc3)CC2)nn1 [AB1415]  UniProtKB P68400     IC50         nM                    50
 5  Cc1noc(C)c1-c1ccc(S(=O)(=O)NCCN2CCC(Cn3cc(-c4c(C(=O)C5CC5)[nH]c5ccc(F)cc45)nn3)CC2)cc1 [AB1285]  UniProtKB P68400     IC50         nM                   930
 6  CC(C)COC(=O)c1[nH]c2ccc(F)cc2c1-c1cn(CC2CCN(CCNS(=O)(=O)c3ccc4c(c3)CCC4)CC2)nn1 [AB932]  UniProtKB P68400     IC50         nM                    75
 7  CCc1ccc(S(=O)(=O)NCCN2CCC(Cn3cc(-c4c(C(=O)OC(C)C)[nH]c5ccc(Cl)cc45)nn3)CC2)cc1 [AB578]  UniProtKB P68400     IC50         nM                  9200
 8  CCOC(=O)c1[nH]c2ccc(F)cc2c1-c1cn(CC2CCN(CCNS(=O)(=O)c3ccc4ccccc4c3)CC2)nn1 [AB536]  UniProtKB P68400     IC50         nM                   800
 9  CC(C)COC(=O)c1[nH]c2ccc(Cl)cc2c1-c1cn(CC2CCN(CCNS(=O)(=O)c3ccc(C(F)(F)F)cc3)CC2)nn1 [AB601]  UniProtKB P68400     IC50         nM                  1400
10  CC(C)COC(=O)c1[nH]c2ccc(F)cc2c1-c1cn(CC2CCN(CCNS(=O)(=O)c3ccc(-c4ccoc4)cc3)CC2)nn1 [AB1071]  UniProtKB P68400     IC50         nM                    65
11  CCOC(=O)c1[nH]c2ccc(F)cc2c1-c1cn(CC2CCN(CCNS(=O)(=O)c3ccc(CC)cc3)CC2)nn1 [AB526]  UniProtKB P68400     IC50         nM                   300
12  CC(C)COC(=O)c1[nH]c2ccc(F)cc2c1-c1cn(CC2CCN(CCNS(=O)(=O)c3ccc(Cl)cc3)CC2)nn1 [AB498]  UniProtKB P68400     IC50         nM                   830
13  CC(C)COC(=O)c1[nH]c2ccc(Cl)cc2c1-c1cn(CC2CCN(CCNS(=O)(=O)c3ccc(Cl)cc3)CC2)nn1 [AB499]  UniProtKB P68400     IC50         nM                   670
14  COCc1ccccc1-c1ccc(S(=O)(=O)NCCN2CCC(Cn3cc(-c4c(C(=O)OCC(C)C)[nH]c5ccc(F)cc45)nn3)CC2)cc1 [AB1303]  UniProtKB P68400     IC50         nM                    33
15  CC(=O)c1[nH]c2ccc(F)cc2c1-c1cn(CC2CCN(CCNS(=O)(=O)c3ccc(-c4c(F)cccc4C(F)(F)F)cc3)CC2)nn1 [AB1451]  UniProtKB P68400     IC50         nM                    45
16  O=S(=O)(NCCN1CCC(Cn2cc(-c3c[nH]c4ccc(F)cc34)nn2)CC1)c1ccc(Cl)cc1 [AB153]  UniProtKB P68400     IC50         nM                 15100
